- Test system: A549
- assay: Induction of apoptosis in human A549 cells assessed as late apoptotic cells at IC50 incubated for 72 hrs by Annexin V-FITC staining based flow cytometry analysis (reference value: 1.86 %)
- Type: functional
Items are presented alongside their recorded Activity.
Answer format: numeric, % implied, no suffix.

Problem: Recorded Activity of CC[C@@H](C(=O)[C@@H](C)[C@@H](O)[C@H](C)[C@@H]1O[C@@H]([C@@H](CC)C(=O)OCCCC[P+](c2ccccc2)(c2ccccc2)c2ccccc2)CC[C@@H]1C)[C@H]1O[C@]2(C=C[C@@H](O)[C@]3(CC[C@@](C)([C@H]4CC[C@](O)(CC)[C@H](C)O4)O3)O2)[C@H](C)C[C@@H]1C.[Br-] , please.
Solution: 3.9

Problem: Recorded Activity of CC[C@@H](C(=O)[C@@H](C)[C@@H](O)[C@H](C)[C@@H]1O[C@@H]([C@@H](CC)C(=O)OCc2ccccc2)CC[C@@H]1C)[C@H]1O[C@]2(C=C[C@@H](O)[C@]3(CC[C@@](C)([C@H]4CC[C@](O)(CC)[C@H](C)O4)O3)O2)[C@H](C)C[C@@H]1C , please.
Solution: 2.76

Problem: Recorded Activity of CC[C@@H](C(=O)[C@@H](C)[C@@H](O)[C@H](C)[C@@H]1O[C@@H]([C@@H](CC)C(=O)O)CC[C@@H]1C)[C@H]1O[C@]2(C=C[C@@H](O)[C@]3(CC[C@@](C)([C@H]4CC[C@](O)(CC)[C@H](C)O4)O3)O2)[C@H](C)C[C@@H]1C , please.
Solution: 2.05

Problem: Recorded Activity of CCCC[P+](CCCC)(CCCC)CCCCOC(=O)[C@H](CC)[C@H]1CC[C@H](C)[C@H]([C@@H](C)[C@H](O)[C@H](C)C(=O)[C@H](CC)[C@H]2O[C@]3(C=C[C@@H](O)[C@]4(CC[C@@](C)([C@H]5CC[C@](O)(CC)[C@H](C)O5)O4)O3)[C@H](C)C[C@@H]2C)O1.[Br-] , please.
Solution: 14.59
